- COMPOUND: "Cc1cn2cc(-c3cc4ccc(O[C@@H]5CCN(CCO)C5)cc4oc3=O)nc2c(C)n1"
  melting point: "190 to 196 °C"
- COMPOUND: "CCN1CCC(c2ccc3cc(-c4ccc5nc(C)cn5c4)c(=O)oc3c2)CC1"
  melting point: "268 to 270 °C"
- COMPOUND: "COc1cc(-c2cc3ccc(N4CCN[C@@H](C)C4)cc3oc2=O)ccc1F"
  melting point: "189 to 191 °C"
- COMPOUND: "CC1(C)CN(c2ccc3cc(-c4cn5cccc(Cl)c5n4)c(=O)oc3c2)CCN1"
  melting point: "216 to 220 °C"
- COMPOUND: "Cc1cn2cc(-c3cc4ccc(CCCCN5CCNCC5)cc4oc3=O)nc2c(C)n1"
  melting point: "187 to 191 °C"
- COMPOUND: "O=C(Oc1ccc2cc(-c3nc4c(Cl)cccc4s3)c(=O)oc2c1)N1CCNCC1"
  melting point: "236 to 239 °C"
- COMPOUND: "Cc1cn2cc(-c3cc4ccc(N5C[C@H]6CN(C)C[C@H]6C5)cc4oc3=O)nc2c(C)n1"
  melting point: "256 to 264 °C"
- COMPOUND: "CN1CCN(c2ccc3cc(-c4cn5ncccc5n4)c(=O)oc3c2)CC1"
  melting point: "284 to 285 °C"
- COMPOUND: "Cc1cn2cc(-c3cc4ccc(N5CCC(NC(C)CO)CC5)cc4oc3=O)nc2c(C)n1 (stereo not shown)"
  melting point: "185 to 189 °C"
- COMPOUND: "CC(C)NCCCc1ccc2cc(-c3nc4c(Cl)cccc4s3)c(=O)oc2c1"
  melting point: "262 to 265 °C"
- COMPOUND: "Cc1cn2cc(-c3cc4ccc(OCCN[C@H](C)CO)cc4oc3=O)nc2c(C)n1"
  melting point: "185 to 188 °C"
- COMPOUND: "Cc1cc(C)c2nc(-c3cc4ccc(N5CCN(C)CC5)cc4oc3=O)cn2c1"
  melting point: "232 to 238 °C"
- COMPOUND: "Cc1cc(F)c2nc(-c3cc4ccc(N5CCNCC5)cc4oc3=O)cn2c1"
  melting point: "276 to 286 °C"
- COMPOUND: "Cc1nc(-c2cc3ccc(N4CCCN(C)CC4)cc3oc2=O)cn1-c1ccccn1"
  melting point: "192 to 196 °C"
- COMPOUND: "CC(C)N1CCN(c2ccc3cc(-c4nc5ccccc5s4)c(=O)oc3c2)CC1"
  melting point: "238 to 246 °C"
- COMPOUND: "Cc1nccn2cc(-c3cc4ccc(N5CCN(C)CC5)cc4oc3=O)cc12"
  melting point: "190 to 192 °C"
- COMPOUND: "O=c1oc2cc(N3CCN(CCO)CC3)ccc2cc1-c1cn2cc(Cl)ccc2n1"
  melting point: "245 to 250 °C"
- COMPOUND: "Cc1cn2cc(-c3cc4ccc(N5C[C@@H]6C[C@H]5CN6)cc4oc3=O)nc2cn1"
  melting point: "225 to 227 °C"
- COMPOUND: "Cc1cn2cc(-c3cc4ccc(CCCNC(CO)CO)cc4oc3=O)nc2c(C)n1"
  melting point: "195 to 199 °C"
- COMPOUND: "Cc1cn2cc(-c3cc4ccc(OC5CCNCC5)cc4oc3=O)nc2c(C)n1"
  melting point: "172 to 177 °C"
- COMPOUND: "Cc1cn2cc(-c3cc4ccc(N5CCN(CCF)[C@@H](C)C5)cc4oc3=O)nc2c(C)n1"
  melting point: "192 to 195 °C"
- COMPOUND: "CCN(CC)CCCc1ccc2cc(-c3cn4cc(C)nc(C)c4n3)c(=O)oc2c1"
  melting point: "165 to 168 °C"
- COMPOUND: "Cc1nc(Cl)cn2cc(-c3cc4ccc(N5CC[C@H](N(C)C)C5)cc4oc3=O)nc12"
  melting point: "210 to 215 °C"
- COMPOUND: "Cc1cn2cc(-c3cc4ccc(C5CCN(C)CC5)cc4oc3=O)ccc2n1"
  melting point: "204 to 206 °C"
- COMPOUND: "Cc1nccn2cc(-c3cc4ccc(N5CCCN(C)CC5)cc4oc3=O)nc12"
  melting point: "180 to 182 °C"
- COMPOUND: "C[C@H]1CN(c2ccc3cc(-c4cn5cccc(Cl)c5n4)c(=O)oc3c2)CCN1"
  melting point: "215 to 217 °C"
- COMPOUND: "CCCN1CCN(c2ccc3cc(-c4cc5cc(C)ccn5n4)c(=O)oc3c2)CC1"
  melting point: "228 to 230 °C"
- COMPOUND: "Cc1cn2cc(-c3cc4ccc(N5CCN6CCCCC6C5)cc4oc3=O)cc2c(C)n1 (stereo not shown)"
  melting point: "145 to 148 °C"
- COMPOUND: "Cc1cn2cc(-c3cc4ccc(N5CCCN(C)CC5)cc4oc3=O)nc2s1"
  melting point: "179 to 184 °C"
- COMPOUND: "Cc1cn2cc(-c3cc4ccc(N5CCN(C)[C@H](C)C5)cc4oc3=O)ccc2n1"
  melting point: "206 to 209 °C"
- COMPOUND: "COc1ccc(-c2cc3ccc(N4CCN[C@@H](C)C4)cc3oc2=O)cc1"
  melting point: "123 to 126 °C"

* * *

Catalogue of compounds with associated melting point
REPORTED_ENDPOINT: melting point

- MOL_SMILES: "C[C@H]1CN(c2ccc3cc(-c4cn5ccsc5n4)c(=O)oc3c2)CCN1"
  REPORTED_ENDPOINT: "melting point"
  RESULT: "230 to 233 °C"
- MOL_SMILES: "O=c1oc2cc(CN3CCCCC3)ccc2cc1-c1nc2c(Cl)cccc2s1"
  REPORTED_ENDPOINT: "melting point"
  RESULT: "191 to 195 °C"
- MOL_SMILES: "CNCCCc1ccc2cc(-c3cn4cc(C)nc(C)c4n3)c(=O)oc2c1"
  REPORTED_ENDPOINT: "melting point"
  RESULT: "197 to 201 °C"

* * *

Catalogue of compounds with associated melting point

- MOL_SMILES: "CNCCc1ccc2cc(-c3cn4cc(C)nc(C)c4n3)c(=O)oc2c1"
  melting point: "204 to 208 °C"
- MOL_SMILES: "Cc1ccn2cc(-c3cc4ccc(N5CCCN(C)CC5)cc4oc3=O)nc2n1"
  melting point: "232 to 236 °C"
- MOL_SMILES: "Cc1cccn2cc(-c3cc4ccc(N5CCNCC5)cc4oc3=O)nc12"
  melting point: "190 to 193 °C"

* * *

Catalogue of compounds with associated melting point
REPORTED_ENDPOINT: melting point

- MOL_SMILES: "CN1CCN(c2ccc3cc(-c4cn5cc(C#N)ccc5n4)c(=O)oc3c2)CC1"
  RESULT: "291 °C (dec.)"
- MOL_SMILES: "CN1CCCN(c2ccc3cc(-c4cn5cccc(Cl)c5n4)c(=O)oc3c2)CC1"
  RESULT: "161 to 163 °C"
- MOL_SMILES: "CN1CCCN(c2ccc3cc(-c4cn5cc(F)cc(F)c5n4)c(=O)oc3c2)CC1"
  RESULT: "255 to 260 °C"
- MOL_SMILES: "O=c1oc2cc(N3CCNCC3)ccc2cc1-c1noc(-c2ccccc2)n1"
  RESULT: "214 to 221 °C"
- MOL_SMILES: "Cc1cn2cc(-c3cc4ccc(N5CC[C@H](CN)C5)cc4oc3=O)nc2c(C)n1"
  RESULT: "196 to 198 °C"
- MOL_SMILES: "Cc1cn2cc(-c3cc4ccc(N5C[C@@H]6[C@H](C5)[C@H]6N(C)C)cc4oc3=O)nc2c(C)n1"
  RESULT: "271 to 274 °C"

* * *

- MOL_SMILES: "COc1ccc(-c2cc3ccc(N4CCNCC4)cc3oc2=O)cc1OC"
  melting point: "168 to 170 °C"
- MOL_SMILES: "Cc1cn2cc(-c3cc4ccc(N5C[C@H]6CCCN[C@H]6C5)cc4oc3=O)nc2cn1"
  melting point: "282 to 291 °C"
- MOL_SMILES: "Cc1cc(F)c2nc(-c3cc4ccc(N5CCN(C)[C@@H](C)C5)cc4oc3=O)cn2c1"
  melting point: "270 to 277 °C"
- MOL_SMILES: "CCc1cccn2cc(-c3cc4ccc(N5CCN(C)CC5)cc4oc3=O)nc12"
  melting point: "137 to 141 °C"
- MOL_SMILES: "CCN(CC)CCc1ccc2cc(-c3cn4cc(C)nc(C)c4n3)c(=O)oc2c1"
  melting point: "190 to 193 °C"
- MOL_SMILES: "COc1c(F)cc(F)cc1-c1cc2ccc(N3CCN[C@@H](C)C3)cc2oc1=O"
  melting point: "156 to 158 °C"
- MOL_SMILES: "Cc1cccc2[nH]c(-c3cc4ccc(N5CCNCC5)cc4oc3=O)nc12"
  melting point: "206 to 211 °C"
- MOL_SMILES: "CCc1ccn2cc(-c3cc4ccc(N5CCNCC5)cc4oc3=O)nc2c1"
  melting point: "253 to 263 °C"
- MOL_SMILES: "Cc1cc(Cl)c2nc(-c3cc4ccc(N5CCCN(C)CC5)cc4oc3=O)cn2c1"
  melting point: "224 to 230 °C"
- MOL_SMILES: "CN(C)Cc1ccc2cc(-c3nc4ccccc4[nH]3)c(=O)oc2c1"
  melting point: "214 to 218 °C"
- MOL_SMILES: "O=c1oc2cc(N3CCNCC3)ccc2cc1-c1cn2cccc(Cl)c2n1"
  melting point: "196 to 198 °C"
- MOL_SMILES: "Cc1cn2cc(-c3cc4ccc(OCCNC(C)C)cc4oc3=O)nc2c(C)n1"
  melting point: "202 to 207 °C"
